- Target Desc: T1, Formyl-Peptide Receptor 1 (UniProt P21462 1-350, limits assumed)
- T1 sequence (looked up): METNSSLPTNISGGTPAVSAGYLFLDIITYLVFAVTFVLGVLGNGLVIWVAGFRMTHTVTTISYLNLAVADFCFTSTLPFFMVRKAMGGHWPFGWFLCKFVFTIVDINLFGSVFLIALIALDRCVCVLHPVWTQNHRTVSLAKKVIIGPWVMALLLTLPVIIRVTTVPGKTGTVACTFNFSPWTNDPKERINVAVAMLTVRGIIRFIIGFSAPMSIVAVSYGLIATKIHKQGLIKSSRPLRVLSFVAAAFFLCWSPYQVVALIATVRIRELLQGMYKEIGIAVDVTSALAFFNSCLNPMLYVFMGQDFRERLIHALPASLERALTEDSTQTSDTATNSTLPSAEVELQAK
- Assay Method Text: cell-based or functional assay
Bridges are numbered along the chain shown (N, C = ends). [ ]: non-standard residue; d: D form.
Below: a set of entries, each annotated with reported β-Arrestin IC50.
All answers are understood in nM, so give the number only.

[[record]]
binder = "cyclo(YHKCHG[dP]WTICYEK[dP]K) (disulfide 4-11; SMILES CC[C@H](C)[C@@H]1NC(=O)[C@H]([C@@H](C)O)NC(=O)[C@H](Cc2c[nH]c3ccccc23)NC(=O)[C@H]2CCCN2C(=O)CNC(=O)[C@H](Cc2c[nH]cn2)NC(=O)[C@@H]2CSSC[C@H](NC1=O)C(=O)N[C@@H](Cc1ccc(O)cc1)C(=O)N[C@@H](CCC(=O)O)C(=O)N[C@@H](CCCCN)C(=O)N1CCC[C@@H]1C(=O)N[C@@H](CCCCN)C(=O)N[C@@H](Cc1ccc(O)cc1)C(=O)N[C@@H](Cc1c[nH]cn1)C(=O)N[C@@H](CCCCN)C(=O)N2) [cyclo(-Tyr-His-Lys-Cys-His-Gly-^DPro-Trp-Thr-Ile-Cys-Tyr-Glu-Lys-^DPro-Lys-)]"
quantity_measured = "β-Arrestin IC50"
recorded_number = 109


Shift focus to the following entry.
Specify measured β-Arrestin IC50 for cyclo(YHACHG[dP]WTICYQK[dP]W) (disulfide 4-11; SMILES CC[C@H](C)[C@@H]1NC(=O)[C@H]([C@@H](C)O)NC(=O)[C@H](Cc2c[nH]c3ccccc23)NC(=O)[C@H]2CCCN2C(=O)CNC(=O)[C@H](Cc2c[nH]cn2)NC(=O)[C@@H]2CSSC[C@H](NC1=O)C(=O)N[C@@H](Cc1ccc(O)cc1)C(=O)N[C@@H](CCC(N)=O)C(=O)N[C@@H](CCCCN)C(=O)N1CCC[C@@H]1C(=O)N[C@@H](Cc1c[nH]c3ccccc13)C(=O)N[C@@H](Cc1ccc(O)cc1)C(=O)N[C@@H](Cc1c[nH]cn1)C(=O)N[C@@H](C)C(=O)N2) [cyclo(-Tyr-His-Ala-Cys-His-Gly-^DPro-Trp-Thr-Ile-Cys-Tyr-Gln-Lys-^DPro-Trp-)] . 147

Taken from patent US9957297B2.
